SYSTEM_UNDER_TEST: Stromelysin (Mus musculus)
Construct: endogenous in cells
PROTOCOL: Stromelysin inhibiting activity (fluorescence labeled casein)
CONDITION_SET: from mouse colon cancer cell (Colon 26); 3 hours at 37° C., pH 7.5
pIC50: −log10 of the molar value.
ATTRIBUTE_MEASURED: pIC50

>>> obs_value("CC(C)C[C@H](CC(=O)NO)C(=O)N[C@H]1Cc2ccccc2NC1=O")
6.24

A: CON1C(=O)[C@@H](NC(=O)[C@H](CC(C)C)[C@H](C)C(=O)NO)Cc2ccccc21
B: CC(=O)SC[C@H](C(=O)NO)[C@@H](CC(C)C)C(=O)N[C@H]1Cc2ccccc2NC1=O
Lower value of pIC50 belongs to which: A or B ? Record your answer as the label of the chosen record.
B

====

SYSTEM_UNDER_TEST: Stromelysin (Mus musculus, UniProt P28862)
Construct: endogenous in cells
Sequence (P28862 100-477): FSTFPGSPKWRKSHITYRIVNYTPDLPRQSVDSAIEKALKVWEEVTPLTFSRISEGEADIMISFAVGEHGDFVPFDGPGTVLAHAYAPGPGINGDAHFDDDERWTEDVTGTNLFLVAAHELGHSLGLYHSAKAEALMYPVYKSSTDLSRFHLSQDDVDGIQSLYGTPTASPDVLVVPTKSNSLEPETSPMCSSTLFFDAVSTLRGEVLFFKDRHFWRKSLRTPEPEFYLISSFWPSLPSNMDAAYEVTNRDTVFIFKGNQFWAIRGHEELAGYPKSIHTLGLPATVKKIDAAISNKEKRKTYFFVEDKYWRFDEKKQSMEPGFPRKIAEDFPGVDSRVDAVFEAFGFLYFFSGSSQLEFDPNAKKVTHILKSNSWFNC
PROTOCOL: Stromelysin inhibiting activity (fluorescence labeled casein)
CONDITION_SET: from mouse colon cancer cell (Colon 26); 3 hours at 37° C., pH 7.5
ATTRIBUTE_MEASURED: IC50 (nM)

Below, each entry is followed by its recorded IC50 result.
>>> obs_value("COC(=O)c1ccc(CN2C(=O)[C@@H](NC(=O)[C@@H](CC(=O)NO)CC(C)C)Cc3ccccc32)cc1")
290
>>> obs_value("CC(C)C[C@@H](C(=O)N[C@H]1Cc2ccccc2NC1=O)[C@H](CSc1cccs1)C(=O)NO")
27
>>> obs_value("C=CCN1C(=O)[C@@H](NC(=O)[C@H](CC(C)C)[C@H](C)C(=O)NO)Cc2ccccc21")
28

P: CC(C)C[C@@H](C(=O)N[C@H]1Cc2ccccc2NC1=O)C(CN1C(=O)c2ccccc2C1=O)C(=O)NO (single isomer, unassigned)
Q: CON1C(=O)[C@@H](NC(=O)[C@@H](CC(=O)NO)CC(C)C)Cc2ccccc21
R: COCN1C(=O)[C@@H](NC(=O)[C@@H](CC(=O)NO)CC(C)C)Cc2ccccc21
S: COc1ccc2c(c1)NC(=O)[C@@H](NC(=O)[C@@H](CC(=O)NO)CC(C)C)C2
Rank the 4 compounds: largest IC50 first, smallest last. Form field (ranking): labels in requested order.
Q, S, R, P
(Q: 1300 nM, S: 490 nM, R: 37 nM, P: 23 nM)

====

SYSTEM_UNDER_TEST: Interstitial collagenase (Homo sapiens, UniProt P03956)
Construct: endogenous in cells
Sequence (P03956 100-469): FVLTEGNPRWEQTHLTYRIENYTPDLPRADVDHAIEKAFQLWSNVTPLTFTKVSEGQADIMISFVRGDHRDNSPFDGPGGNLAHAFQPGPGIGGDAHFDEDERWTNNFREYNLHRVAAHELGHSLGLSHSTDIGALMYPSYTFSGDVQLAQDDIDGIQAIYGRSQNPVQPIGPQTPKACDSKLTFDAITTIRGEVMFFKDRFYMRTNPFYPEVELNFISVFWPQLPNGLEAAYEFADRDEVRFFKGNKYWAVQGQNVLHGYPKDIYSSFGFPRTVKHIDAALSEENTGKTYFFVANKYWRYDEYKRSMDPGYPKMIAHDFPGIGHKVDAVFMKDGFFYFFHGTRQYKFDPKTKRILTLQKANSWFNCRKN
PROTOCOL: Interstitial collagenase inhibiting activity (fluorescence labeled collagen)
CONDITION_SET: from human fibroblast cell (Detroit 551); 2 hours at 35° C., pH 7.5
pIC50: −log10 of the molar value.
ATTRIBUTE_MEASURED: pIC50

Below, each entry is followed by its recorded pIC50 result.
>>> obs_value("CC(C)C[C@H](CC(=O)NO)C(=O)N[C@H]1Cc2ccccc2NC1=O [Test compound 1]")
6.68
>>> obs_value("COCCN1C(=O)[C@H](NC(=O)[C@@H](CC(=O)NO)CC(C)C)Cc2cc3c(cc21)OCO3 [Test compound 25]")
5.39
>>> obs_value("COCCN1C(=O)[C@@H](NC(=O)[C@@H](CC(=O)NO)CC(C)C)Cc2ccccc21 [Test compound 21]")
6.96
>>> obs_value("COC(=O)c1ccc(CN2C(=O)[C@@H](NC(=O)[C@@H](CC(=O)NO)CC(C)C)Cc3ccccc32)cc1 [Test compound 11]")
6.12
>>> obs_value("CC(C)C[C@@H](C(=O)N[C@H]1Cc2ccccc2N(CC(=O)O)C1=O)[C@H](C)C(=O)NO [Test compound 16]")
7.16

A: COCCN1C(=O)[C@@H](NC(=O)[C@@H](CC(=O)NO)CC(C)C)Cc2cc3c(cc21)OCO3 [Test compound 24]
B: CCN1C(=O)[C@@H](NC(=O)[C@@H](CC(=O)NO)CC(C)C)Cc2ccccc21 [Test compound 12]
Higher pIC50: A or B ? Record your answer as the label of the chosen record.
B
(B: 6.54, A: 6.13)

Origin of measurements: patent US5594006A
